Data origin: paper PMC10247784

Target: human TAS2R4 (Homo sapiens)
Construct: expressed in transfected cells; host or cells: HEK293T-Gα16gust44
Sequence (Q9NYW5 1-299): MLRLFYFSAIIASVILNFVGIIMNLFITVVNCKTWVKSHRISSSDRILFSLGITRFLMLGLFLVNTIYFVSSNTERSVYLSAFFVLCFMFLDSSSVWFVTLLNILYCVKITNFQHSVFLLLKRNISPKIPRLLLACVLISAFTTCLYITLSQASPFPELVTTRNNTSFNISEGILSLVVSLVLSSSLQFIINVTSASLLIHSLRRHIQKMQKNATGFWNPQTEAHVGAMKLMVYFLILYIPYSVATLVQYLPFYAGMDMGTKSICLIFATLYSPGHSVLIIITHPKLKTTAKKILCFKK
Experiment: Calcium imaging assay (FLIPR), HEK293T-Gα16gust44 cells transfected with human TAS2R4; note: test concentration or dose not given here
Format: cell-based
Conditions: Time (s) 191.547
experimental_endpoint: RLU, fluorescence trace (RLU)
Report the value in RLU with no unit label.

>>> reported("C[C@H](CCC(=O)O)[C@H]1CC[C@H]2[C@@H]3[C@H](O)C[C@@H]4C[C@H](O)CC[C@]4(C)[C@H]3C[C@H](O)[C@]12C [Cholic Acid, cholic acid]")
246.932
>>> reported("C[C@H](CCC(=O)NCCS(=O)(=O)O)[C@H]1CC[C@H]2[C@@H]3CC[C@@H]4C[C@H](O)CC[C@]4(C)[C@H]3CC[C@]12C [Taurolithocholic Acid, taurolithocholic acid]")
137.563

If you can, please state the reported RLU, fluorescence trace value of C[C@H](CCC(=O)O)[C@H]1CC[C@H]2[C@@H]3[C@@H](O)C[C@@H]4C[C@H](O)CC[C@]4(C)[C@H]3CC[C@]12C [Ursodeoxycholic Acid, ursodeoxycholic acid] .
150.92

Similarly, C[C@H](CCC(=O)NCCS(=O)(=O)O)[C@H]1CC[C@H]2[C@@H]3[C@H](O)C[C@@H]4C[C@H](O)CC[C@]4(C)[C@H]3C[C@H](O)[C@]12C [Taurocholic Acid, taurocholic acid] ?
357.243

Similarly, C[C@H](CCC(=O)NCC(=O)O)[C@H]1CC[C@H]2[C@@H]3[C@H](O)C[C@@H]4C[C@H](O)CC[C@]4(C)[C@H]3C[C@H](O)[C@]12C [Glycocholic Acid, glycocholic acid] ?
214.607

Similarly, C[C@H](CCC(=O)O)[C@H]1CC[C@H]2[C@@H]3CC[C@@H]4C[C@H](O)CC[C@]4(C)[C@H]3C[C@H](O)[C@]12C [Deoxycholic Acid, deoxycholic acid] ?
372.236
